target: BRD4-BD1 (Homo sapiens, UniProt O60885); assay: Binding affinity to BRD4-BD1 (bromoKdELECT assay); conditions: 11-point 3-fold dilution series
recorded_metric: Kd

Which measured Kd value corresponds to CCS(=O)(=O)c1ccc(OC(COCCOC2CCN(c3ncc(C(=O)NC4C(C)(C)C(Oc5ccc(C#N)c(Cl)c5)C4(C)C)cn3)CC2)C2CC2)c(-c2cn(C)c(=O)c3[nH]ccc23)c1 (stereo not drawn) [Compound I-186] ?
50 to 500 nM

Continuing:
Which measured Kd value corresponds to CCS(=O)(=O)Nc1ccc(OCC(OCCCOC2CCN(c3ncc(C(=O)N[C@H]4C(C)(C)[C@H](Oc5ccc(C#N)c(Cl)c5)C4(C)C)cn3)CC2)C2CC2)c(-c2cn(C)c(=O)c3[nH]ccc23)c1 (stereo partly drawn) [Compound I-187] ?
50 to 500 nM

Which measured Kd value corresponds to Cn1cc(-c2cc(NS(=O)(=O)CC(F)(F)F)ccc2Oc2cccc(OCCOC3CCN(c4ncc(C(=O)N[C@H]5C(C)(C)[C@H](Oc6ccc(C#N)c(Cl)c6)C5(C)C)cn4)CC3)c2F)c2cc[nH]c2c1=O [Compound I-153] ?
500 to 2500 nM

Which measured Kd value corresponds to CCS(=O)(=O)Cc1ccc(Oc2cccc(CCCN3CCN(c4ncc(C(=O)N[C@H]5C(C)(C)[C@H](Oc6ccc(C#N)c(Cl)c6)C5(C)C)cn4)CC3)c2F)c(-c2cn(C)c(=O)c3[nH]ccc23)c1 [Compound I-144] ?
50 to 500 nM

Which measured Kd value corresponds to Cn1cc(-c2cc(C(C)(C)O)ccc2Oc2cccc(OCCC3CCN(c4ncc(C(=O)N[C@H]5C(C)(C)[C@H](Oc6ccc(C#N)c(Cl)c6)C5(C)C)cn4)CC3)c2)c2cc[nH]c2c1=O [Compound I-156] ?
500 to 2500 nM

Which measured Kd value corresponds to CN(c1ccc(Oc2cccc(OCCOC3CCN(c4ncc(C(=O)N[C@H]5C(C)(C)[C@H](Oc6ccc(C#N)c(Cl)c6)C5(C)C)cn4)CC3)c2)c(-c2cn(C)c(=O)c3[nH]ccc23)c1)S(=O)(=O)C1CC1 [Compound I-49] ?
> 2500 nM

Which measured Kd value corresponds to CCS(=O)(=O)Nc1ccc(Oc2cccc(OCCN(C)c3ncc(C(=O)N[C@H]4C(C)(C)[C@H](Oc5ccc(C#N)c(Cl)c5)C4(C)C)cn3)c2)c(-c2cn(C)c(=O)c3[nH]ccc23)c1 [Compound I-1] ?
50 to 500 nM

Which measured Kd value corresponds to CCS(=O)(=O)Nc1ccc(Oc2cccc(COC3CCN(c4ncc(C(=O)N[C@H]5C(C)(C)[C@H](Oc6ccc(C#N)c(Cl)c6)C5(C)C)cn4)CC3)c2)c(-c2cn(C)c(=O)c3[nH]ccc23)c1 [Compound I-18] ?
500 to 2500 nM

Which measured Kd value corresponds to Cc1ccc(CCCOC2CCN(c3ncc(C(=O)N[C@H]4C(C)(C)[C@H](Oc5ccc(C#N)c(Cl)c5)C4(C)C)cn3)CC2)cc1Oc1ccc(C(C)(C)O)cc1-c1cn(C)c(=O)c2[nH]ccc12 [Compound I-192] ?
> 2500 nM

These entries and their values trace back to patent US20250388605A1.
